experiment: chemical genetic growth profiling, strain panel (AID 1159580);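 note: tested at 20 µM; growth read once vehicle control cultures reached saturation at 30 °C; 1 = growth at the plate median or of vehicle wells; lower values mean less growth of the strain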; details: S. cerevisiae deletion strains, growth OD, locus YPL256C, strain CLN2, active compounds read low
Out of some 5,500 compounds screened, about 2,000 (36%) were called active. Roughly 18% stayed inconclusive and do not appear here. The list shows a part of the results.
reported endpoint: normalized growth

For orientation, consider the following solved cases.
molecule=O=C(NCc1ccc(Cl)c(Cl)c1)c1cccnc1OCC(F)(F)F reported_endpoint="normalized growth" result="0.995 (inactive)"
molecule=O=C(O)CCCc1ccccc1 reported_endpoint="normalized growth" result="0.72 (active)"
molecule=O=S(=O)(O)c1cc(N=C=S)ccc1/C=C/c1ccc(N=C=S)cc1S(=O)(=O)O reported_endpoint="normalized growth" result="1.11 (inactive)"

Need normalized growth of CC[C@@]1(O)C[C@H](O[C@H]2C[C@H](N(C)C)[C@H](O)[C@H](C)O2)c2c(cc3c(c2O)C(=O)c2c(O)ccc(O)c2C3=O)[C@H]1C(=O)OC , thanks. 0.983 (inactive)

And the next one, COc1ccc2c(c1)OC/C(=C\c1ccc(OC)c(O)c1)C2=O ? 0.958 (inactive)

And the next one, O=C(O)/C=C/c1ccc(O)c(O)c1 ? 0.985 (inactive)

And the next one, COC(=O)/C=C/C(C)=C/C=C/C(C)=C/C=C/C=C(C)/C=C/C=C(C)/C=C/C(=O)O ? 0.894 (inactive)

And the next one, O=C1C(Cl)=C(Cl)C(=O)C(Cl)=C1Cl ? 0.132 (active)

And the next one, C[C@@H]1CC(Cl)CC[C@H]1C(=O)OC(C)(C)C (stereo partly drawn) ? 1.01 (inactive)

And the next one, N#C/C(=N/Nc1ccccc1)C(=O)c1ccccc1OC(F)(F)F ? 0.881 (inactive)

And the next one, CCCCCCCCC(=O)NCc1ccc(O)c(OC)c1 ? 1 (inactive)

And the next one, COc1cc(CNC(=O)CCCC/C=C/C(C)C)ccc1O ? 0.986 (inactive)

And the next one, O=C(O)CCCc1ccc(N(CCCl)CCCl)cc1 ? 0.857 (inactive)

And the next one, CC1(O)CC2C(CC1O)C2(C)C (stereo not drawn) ? 1.02 (inactive)

And the next one, CCN1CCCC(OC(=O)C(c2ccccc2)c2ccccc2)C1 (stereo not drawn) ? 0.979 (inactive)

And the next one, N/C(CCSc1ccc(Cl)cc1)=N/OC(=O)Nc1ccc(Cl)cc1 ? 0.118 (active)

And the next one, N[C@@H](Cc1ccc(N(CCCl)CCCl)cc1)C(=O)O ? 1.02 (inactive)

And the next one, O=C(/C=C/c1ccc(O)c(O)c1)OCCc1ccccc1 ? 0.854 (inactive)

And the next one, COc1cc([C@@H]2c3cc4c(cc3C(OC3O[C@@H]5COC(C)O[C@H]5[C@H](O)[C@H]3O)C3COC(=O)[C@@H]32)OCO4)cc(OC)c1O (stereo partly drawn) ? 1.08 (inactive)

* * *

experiment: chemical genetic growth profiling, strain panel (AID 1159580); details: S. cerevisiae deletion strains, growth OD, locus YOR070C, strain gyp1
The whole screen tested about 5,500 compounds, of which about 2,000 (36%) were called active. Roughly 18% stayed inconclusive and do not appear here. No stated cut-off is given here; in the data, active means normalized growth mostly below about 0.91 (no sharp cut-off); inconclusive means no clear call, values can overlap the other calls; inactive means mostly above about 0.92. Some of the results follow.
Write down the outcome that applies. Available outcomes: 1 for active, 0 for inactive

molecule=CCCCNC(=O)NS(=O)(=O)c1ccc(C)cc1 group_label=0
molecule=Cc1ccc(C(=O)Nc2ccc(S(=O)(=O)O)c3cc(S(=O)(=O)O)cc(S(=O)(=O)O)c23)cc1NC(=O)c1cccc(NC(=O)Nc2cccc(C(=O)Nc3cc(C(=O)Nc4ccc(S(=O)(=O)O)c5cc(S(=O)(=O)O)cc(S(=O)(=O)O)c45)ccc3C)c2)c1 group_label=0
molecule=Oc1ccc2c(c1)O[C@H](c1ccc(O)c(O)c1)[C@@H](O)C2 group_label=0
molecule=Cc1ccc(S(=O)(=O)NC(=O)NN2CCCCCC2)cc1 group_label=0
molecule=c1ccc2c(c1)sc1ccccc12 group_label=0

Outcome logged for COc1ccc(CN(CCN(C)C)c2ccccn2)cc1 in this assay: 0

And the next one, COc1cc([C@@H]2c3cc4c(cc3[C@@H](O)C3COC(=O)C32)OCO4)cc(OC)c1O (some centres undefined) ? 0

And the next one, CCN(CC)Cc1ccc(Nc2ccnc3cc(Cl)ccc23)cc1O ? 0

* * *

experiment: chemical genetic growth profiling, strain panel (AID 1159580);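 note: tested at 20 µM; growth read once vehicle control cultures reached saturation at 30 °C; 1 = growth at the plate median or of vehicle wells; lower values mean less growth of the strain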; conditions: S. cerevisiae deletion strains, growth OD, locus YNL006W, strain LST8, active compounds read low
Screen size: about 5,500 compounds; about 2,000 (36%) were called active. Roughly 18% stayed inconclusive and do not appear here. The list shows a part of the results.
Below, each entry is listed alongside its reported normalized growth.
Write no unit; give the number alone.

For orientation, consider the following solved cases.
molecule="CC(C)(C)c1ccc(C(=N)SC(C(=O)C(F)(F)F)c2ccccc2)cc1 (stereo not drawn)" reported_endpoint="normalized growth" numeric_value=0.997
molecule="COc1ccc(C(CC(=O)c2ccccc2)Sc2ccccc2N)cc1OC (stereo not drawn)" reported_endpoint="normalized growth" numeric_value=0.984
molecule=CC(=O)c1ccc(Cl)c(NS(=O)(=O)c2cc(Cl)c(Cl)cc2Cl)c1 reported_endpoint="normalized growth" numeric_value=0.925
molecule=Cc1cc(C)cc(Sc2ccc3nnc(-c4ccccc4)n3n2)c1 reported_endpoint="normalized growth" numeric_value=0.998

Need normalized growth of COc1cc(Cl)ccc1N/N=C(/C#N)C(N)=O , thanks. 0.0981

And the next one, N#C/C(=N/Nc1ccc(F)cc1)S(=O)(=O)c1ccc(Cl)cc1 ? 0.989

And the next one, N#C/C(=N/Nc1ccc(F)cc1)C(=O)c1ccccc1 ? 0.853

And the next one, Cc1ccc(Nc2ccnc3cc(Cl)ccc23)cc1F ? 1.01

And the next one, COc1cccc(C2CCN(C(=O)c3cccc4ccccc34)CC2)c1 ? 0.987

And the next one, Cc1cc(C(=O)NNS(=O)(=O)c2ccc(F)c(Cl)c2)nn1-c1c(Cl)cc(Cl)cc1Cl ? 0.994

And the next one, O=[N+]([O-])c1ccc(ON=C2CCCCC2)c([N+](=O)[O-])c1 ? 0.991

And the next one, CCOC(=O)c1ccc2nc(N=CNO)sc2c1 ? 0.945

And the next one, CC(=O)/C(C#N)=N\Nc1ccc(F)cc1 ? 0.57

And the next one, CC(C)(C)c1ccc(N/N=C(\C#N)C(N)=O)cc1 ? 0.0902

And the next one, O=C(/C=C/c1ccc2c(c1)OCO2)Nc1ccc(Br)cc1 ? 0.974

And the next one, O=C(ON=C1CCCCC1)c1ccc([N+](=O)[O-])cc1 ? 0.943

And the next one, O=C(c1csc(-c2ccc(Cl)cc2)c1)N1CCCCC1 ? 0.953

And the next one, O=[N+]([O-])c1ccc(-c2noc(-c3ccno3)n2)o1 ? 0.104

* * *

test: chemical genetic growth profiling, strain panel (AID 1159580);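 note: tested at 20 µM; growth read once vehicle control cultures reached saturation at 30 °C; 1 = growth at the plate median or of vehicle wells; lower values mean less growth of the strain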; details: S. cerevisiae deletion strains, growth OD, locus YLR371W, strain rom2
Out of some 5,500 compounds screened, about 2,000 (36%) were called active. Inconclusive results (about 18%) are left out. Cut-off read from the data, not from the text of the source: active = normalized growth mostly below about 0.91 (no sharp cut-off); inconclusive = no clear call, values can overlap the other calls; inactive = mostly above about 0.92. The list shows a part of the results.
Write down the outcome that applies. Available outcomes: 1 (active), 0 (inactive)

molecule=O=C(O[C@@H]1Cc2c(O)cc(O)cc2O[C@@H]1c1cc(O)c(O)c(O)c1)c1cc(O)c(O)c(O)c1 group_label=1
molecule=CCC[C@H](N[C@@H](C)C(=O)N1[C@H](C(=O)O)C[C@@H]2CCCC[C@@H]21)C(=O)OCC group_label=0
molecule="C[C@]12CCC(=O)C=C1C=CC1C2CC[C@@]2(C)C1CC[C@@]21CCC(=O)O1 (some centres undefined)" group_label=0
molecule=O=C(O)/C=C/c1ccc(O)c(O)c1 group_label=0
molecule=COc1ccc2c(c1)OC/C(=C\c1ccc(OC)c(O)c1)C2=O group_label=1

Outcome logged for CN1CCC(OC(c2ccccc2)c2ccccc2)CC1 in this assay: 0

And the next one, CC[C@@H](C(=O)C(C)[C@@H](O)[C@H](C)CCc1ccc(C)c(O)c1C(=O)O)C1OC(CC)(C2CC[C@](O)(CC)[C@H](C)O2)C[C@@H]1C (some centres undefined) ? 0

And the next one, CN1CC(CO)=C[C@@H]2c3cccc4[nH]cc(c34)C[C@H]21 ? 0

* * *

Below, each entry is listed alongside its reported normalized growth.
assay: chemical genetic growth profiling, strain panel (AID 1159580);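 note: tested at 20 µM; growth read once vehicle control cultures reached saturation at 30 °C; 1 = growth at the plate median or of vehicle wells; lower values mean less growth of the strain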; details: S. cerevisiae deletion strains, growth OD, locus YAL030W, strain snc1, active compounds read low
Hit rate of the full screen: of about 5,500 compounds, about 2,000 (36%) were called active. About 18% were inconclusive and are not listed. This is one part of the list.
Write no unit; give the number alone.

For orientation, consider the following solved cases.
compound="CCCCC/C=C/CCC(=O)N[C@H]1[C@H](Oc2c3cc4cc2Oc2ccc(cc2Cl)[C@@H](O[C@@H]2O[C@H](CO)[C@@H](O)[C@H](O)[C@H]2NC(C)=O)[C@@H]2NC(=O)[C@H](NC(=O)[C@@H]4NC(=O)[C@H]4NC(=O)C(Cc5ccc(c(Cl)c5)O3)NC(=O)[C@H](N)c3ccc(O)c(c3)Oc3cc(O)cc4c3)c3ccc(O)c(c3)-c3c(OC4O[C@H](CO)[C@@H](O)[C@H](O)[C@@H]4O)cc(O)cc3[C@@H](C(=O)O)NC2=O)O[C@H](CO)[C@@H](O)[C@@H]1O (stereo not given in full)" reported_endpoint="normalized growth" numeric_value=0.995
compound="CNCCC(Oc1ccc(C(F)(F)F)cc1)c1ccccc1 (stereo not given)" reported_endpoint="normalized growth" numeric_value=0.987
compound="CC(=O)S[C@@H]1CC2=CC(=O)CC[C@]2(C)[C@H]2CC[C@@]3(C)[C@@H](CC[C@@]34CCC(=O)O4)C12 (stereo not given in full)" reported_endpoint="normalized growth" numeric_value=1.01
compound=Clc1ccc(C(c2ccc(Cl)cc2)C(Cl)(Cl)Cl)cc1 reported_endpoint="normalized growth" numeric_value=1
compound="CC1(O)CC2C(CC1O)C2(C)C (stereo not given)" reported_endpoint="normalized growth" numeric_value=0.99

Need normalized growth of CCN1CCCC(OC(=O)C(c2ccccc2)c2ccccc2)C1 (stereo not given) , thanks. 0.989

And the next one, C/C=C(\C)C(=O)O[C@H]1C[C@@H](OC(C)=O)[C@@]2(C(=O)OC)CO[C@@H]3C2[C@]12CO[C@](O)(C(=O)OC)[C@H]2[C@](C)(C12O[C@@]1(C)[C@H]1C[C@@H]2OC2OC=C[C@@]21O)[C@@H]3O (stereo not given in full) ? 0.976

And the next one, C[C@]12CCC(=O)C=C1C=CC1C2CC[C@@]2(C)C1CC[C@@]21CCC(=O)O1 (stereo not given in full) ? 0.974

And the next one, COC(=O)/C=C/C(C)=C/C=C/C(C)=C/C=C/C=C(C)/C=C/C=C(C)/C=C/C(=O)O ? 1.02

And the next one, CC[C@@H](C(=O)C(C)[C@@H](O)[C@H](C)CCc1ccc(C)c(O)c1C(=O)O)C1OC(CC)(C2CC[C@](O)(CC)[C@H](C)O2)C[C@@H]1C (stereo not given in full) ? 1.06
